Listing: IC50 of selected molecules
# ASSAY_SYSTEM: EHMT2 (Homo sapiens, UniProt Q96KQ7)
# Construct: host or cells: MDA-MB-231
# Sequence (Q96KQ7 1-1210): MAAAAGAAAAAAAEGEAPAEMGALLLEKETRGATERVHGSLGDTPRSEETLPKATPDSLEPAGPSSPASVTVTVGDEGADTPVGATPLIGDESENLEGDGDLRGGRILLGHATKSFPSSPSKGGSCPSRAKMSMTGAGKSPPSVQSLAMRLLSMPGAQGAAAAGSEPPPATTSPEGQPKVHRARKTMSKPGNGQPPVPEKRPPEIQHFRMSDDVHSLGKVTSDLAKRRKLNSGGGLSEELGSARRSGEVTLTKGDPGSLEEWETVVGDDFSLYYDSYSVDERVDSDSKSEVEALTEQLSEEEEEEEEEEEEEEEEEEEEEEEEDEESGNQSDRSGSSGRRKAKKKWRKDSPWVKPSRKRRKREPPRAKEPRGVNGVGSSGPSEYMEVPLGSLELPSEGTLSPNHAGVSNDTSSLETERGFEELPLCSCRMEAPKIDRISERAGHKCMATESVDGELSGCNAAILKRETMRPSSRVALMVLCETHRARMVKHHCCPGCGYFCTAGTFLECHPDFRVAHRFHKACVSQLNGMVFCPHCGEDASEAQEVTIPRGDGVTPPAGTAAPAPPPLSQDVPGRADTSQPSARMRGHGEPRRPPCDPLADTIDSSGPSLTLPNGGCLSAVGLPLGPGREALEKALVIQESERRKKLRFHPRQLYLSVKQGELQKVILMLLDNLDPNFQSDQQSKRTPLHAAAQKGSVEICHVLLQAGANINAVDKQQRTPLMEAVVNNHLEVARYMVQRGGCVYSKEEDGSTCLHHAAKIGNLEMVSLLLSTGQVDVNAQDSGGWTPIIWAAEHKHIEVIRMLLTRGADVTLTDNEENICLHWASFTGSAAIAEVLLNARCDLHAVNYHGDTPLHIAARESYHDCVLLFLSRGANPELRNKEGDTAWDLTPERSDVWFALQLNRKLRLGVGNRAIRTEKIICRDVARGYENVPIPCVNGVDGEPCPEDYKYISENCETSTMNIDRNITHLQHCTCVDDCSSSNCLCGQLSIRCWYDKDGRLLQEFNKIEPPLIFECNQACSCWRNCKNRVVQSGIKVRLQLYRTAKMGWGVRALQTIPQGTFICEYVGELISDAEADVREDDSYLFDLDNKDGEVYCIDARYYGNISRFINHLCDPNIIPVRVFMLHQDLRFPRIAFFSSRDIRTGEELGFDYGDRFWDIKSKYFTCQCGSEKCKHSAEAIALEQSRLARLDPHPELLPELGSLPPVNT
# ASSAY_PROTOCOL: MDA-MB-231 H3K9me2 in-cell Western assay (EHMT2 ICW)
# Format: cell-based
# MEASUREMENT_CONDITIONS: Table III; MDA-MB-231 H3K9me2 in-cell Western; read-out: EHMT2 ICW (IC50 μM)

Record excerpt, results attached:
> print(dat)
                                   molecule     reported
1  CNc1cc(C)nc(Nc2ccc(OC)c(OCCOC)c2)n1 [Compound 311]      > 10 µM
2  CCOc1ccc(Nc2nccc(NC)n2)cc1OCC1CCN(C)C1 (stereo not shown) [Compound 431]      > 10 µM
3  CNc1cc(C)nc(Nc2cc(OCCCN3CCCC3)c(OC)cn2)c1 [Compound 307]  0.1 to 1 µM

In plain terms, COc1ccc(Nc2nccc(NCC3CCOCC3)n2)cc1OC1CCC2(CC1)CCN(C)C2 (stereo not shown) [Compound 259] has a documented IC50 of > 10 µM

In plain terms, CNc1cc(C)nc(Nc2ccc(OC)c(OCC3CCN(C)CC3)c2)n1 [Compound 435] has a documented IC50 of 1 to 10 µM

In plain terms, CNc1cc(C)nc(Nc2ccc(OC)c(OCC3CCN(C4CCC4)C3)c2)n1 (stereo not shown) [Compound 446] has a documented IC50 of 0.1 to 1 µM

In plain terms, CNc1cc(Nc2ccc(OC)c(OCCCN3CCCC3)c2)cc(C(F)(F)F)n1 [Compound 273] has a documented IC50 of > 10 µM

In plain terms, COc1ccc(Nc2cccc3[nH]ccc23)cc1OCCCN1CCCC1 [Compound 265] has a documented IC50 of > 10 µM

In plain terms, COc1ccc(Nc2ccnc3[nH]ccc23)cc1OCCCN1CCCC1 [Compound 374] has a documented IC50 of > 10 µM

In plain terms, CCN1CC(COc2cc(Nc3nc(C)cc(NC)n3)ccc2OC)C1 [Compound 444] has a documented IC50 of 0.1 to 1 µM

In plain terms, CNc1ccnc(Nc2ccc(OC)c(OCC3CCN(CCOC)C3)c2)n1 (stereo not shown) [Compound 410] has a documented IC50 of > 10 µM

In plain terms, CNc1cc(C)nc(Nc2cc(OCCCN3CCCC3)c(OC)cc2F)n1 [Compound 302] has a documented IC50 of > 10 µM

In plain terms, CNc1ccnc(Nc2ccc(OC)c(OCC3CCN(C)C3)c2)n1 (stereo not shown) [Compound 393] has a documented IC50 of 0.1 to 1 µM

In plain terms, CNc1ccnc(Nc2ccc(OC)c(OCCCN3CCC(OC)C3)c2)n1 (stereo not shown) [Compound 283] has a documented IC50 of 0.1 to 1 µM

In plain terms, COc1ccc(OCCCN2CCCC2)cc1Nc1nccc(NCC2CCOCC2)n1 [Compound 351] has a documented IC50 of > 10 µM
